Assign log10(LC50) to each entry below.
Test system: Artemia
Assay: Toxicity against brine shrimp
Format: organism-based
Details: in vivo
Scale type: logarithmic (base 10). Underlying LC50 unit: ppm.

Worked examples, 2 compounds total:
| smilesRecord | attributeMeasured | recordedMeasurement |
| --- | --- | --- |
| CC1=CCC[C@H]2[C@](C)(CC3=CC(=O)C(N[C@@H]4[C@@H](O)[C@H](O)[C@@H](CO)O[C@H]4O)=CC3=O)[C@@H](C)CC[C@]12C | log10(LC50) | 1.06 |
| CC1=CCC[C@H]2[C@](C)(CC3=CC(=O)C(N)=CC3=O)[C@@H](C)CC[C@]12C | log10(LC50) | -0.64 |

// each compound listed below needs its log10(LC50)
1. CC1=CCC[C@H]2[C@](C)(CC3=CC(=O)C=CC3=O)[C@@H](C)CC[C@]12C
2. CNC1=CC(=O)C(C[C@]2(C)[C@@H](C)CC[C@]3(C)C(C)=CCC[C@@H]23)=CC1=O
3. CC1=CCC[C@H]2[C@](C)(Cc3cc(=O)c4[nH]c5ncnc6ncn(c=4c3=O)c65)[C@@H](C)CC[C@]12C

[-0.85, -0.47, 1.85]

Values were extracted from ChEMBL document CHEMBL1158906.
